Molecular target: T1, hEva1-mouse Fc (human, UniProt O60487 27-154, limits assumed)
T1 construct: SPR analyte; the '1' is probably the first concentration (1 nM); also called hEva1-mouse Fc1 (so in the source); not shown: mouse Fc
T1 sequence: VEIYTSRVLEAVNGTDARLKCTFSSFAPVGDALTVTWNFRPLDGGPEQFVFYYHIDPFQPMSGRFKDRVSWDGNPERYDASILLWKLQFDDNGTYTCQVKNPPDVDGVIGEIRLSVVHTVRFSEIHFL
Experiment: SPR (BiaCore T200), single-cycle kinetics; antibody captured by anti-human IgG on CM5 chip, hEva1-mouse Fc as analyte
reported.endpoint: kon (M⁻¹ s⁻¹)
Please state the figure in M⁻¹ s⁻¹; there is no need to write the unit.

Query :: Look at this binder and give its reported kon. humanized B2E5-48 antibody H2-L2 (antibody, human IgG1, V domains shown, Human IgG1 heavy chain and human kappa light chain vectors; made in HEK293T cells; also called B2E5-H2-L2) VH: QVQLVQSGAEVKKPGASVKVSCKASGYTFTNYWMHWVRQAPGQGLEWMGEINPTNGGTDYNEKFQGRVTMTVDKSTSTAYMELSSLRSEDTAVYYCTIYTTALDYWGQGTLVTVSS VL: EIVLTQSPATLSLSPGERATLSCRASSSVGYMYWYQQKPGQAPRPLIYVTSNRATGIPARFSGSGSGTDYTLTISSLEPEDFAVYYCQQWSSNPPTFGQGTKLEIK
Result :: 19700

Query :: Look at this binder and give its reported kon. humanized B2E5-48 antibody H4-L4 (antibody, human IgG1, V domains shown, Human IgG1 heavy chain and human kappa light chain vectors; made in HEK293T cells) VH: QVQLVQSGSELKKPGASVKVSCKASGYTFTNYWMHWVRQAPGQGLEWMGEINPTNGGTDYNEGFTGRFVFSVDKSVSTAYLQISSLKAEDTAVYYCTIYTTALDYWGQGTLVTVSS VL: DIQLTQSPSFLSASVGDRVTITCRASSSVGYMYWYQQKPGKAPKPLIYVTSNLASGVPSRFSGSGSGTEYTLTISSLQPEDFATYYCQQWSSNPPTFGQGTKLEIK
Result :: 15300

Query :: Look at this binder and give its reported kon. humanized B2E5-48 antibody H3-L4 (antibody, human IgG1, V domains shown, Human IgG1 heavy chain and human kappa light chain vectors; made in HEK293T cells) VH: QVQLVQSGSELKKPGASVKVSCKASGYTFTNYWMHWVRQAPGQGLEWIGEINPTNGGTDYNEGFTGRFVLSVDKSSSTAYLQISSLKAEDTAVYYCTIYTTALDYWGQGTLVTVSS VL: DIQLTQSPSFLSASVGDRVTITCRASSSVGYMYWYQQKPGKAPKPLIYVTSNLASGVPSRFSGSGSGTEYTLTISSLQPEDFATYYCQQWSSNPPTFGQGTKLEIK
Result :: 15800
